Origin of measurements: patent US8859535B2

biological target: human MDM2 protein (amino acids 2-188) (Homo sapiens, UniProt Q00987); construct: human MDM2 protein (amino acids 2-188); made in house; assay: p53-MDM2 TR-FRET assay, modified (p53-MDM2 Assay 2); assay type: binding; conditions: 0.1 nM MDM2, 0.1 nM Europium labeled streptavidin; read-out: IC50 (nM) of p53-Hdm2 inhibition (TR-FRET) Assay 2
Sequence (Q00987 2-188): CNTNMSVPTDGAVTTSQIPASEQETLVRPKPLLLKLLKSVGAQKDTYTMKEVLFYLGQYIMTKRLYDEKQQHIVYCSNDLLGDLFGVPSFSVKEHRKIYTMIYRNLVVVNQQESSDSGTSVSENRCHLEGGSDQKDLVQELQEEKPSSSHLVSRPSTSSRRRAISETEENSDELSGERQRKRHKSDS
value.kind: IC50

Use the examples below as a reference point.
>  <molecule>
COc1cc2c(cc1OC(C)C)[C@H](c1ccc(Cl)cc1)N(c1ccc(C(C)(O)[C@H]3CCCN(C=O)C3)cc1)C(=O)C2 (stereo partly drawn)

>  <reported.result>
0.329 nM

$$$$
>  <molecule>
COc1cc2c(cc1OC(C)C)[C@H](c1ccc(Cl)cc1)N(c1ccc(C(C)(O)C3CC4CCC(C3)N4CC(F)(F)F)cc1)C(=O)C2 (stereo partly drawn)

>  <reported.result>
1.97 nM

$$$$
>  <molecule>
COc1cc2c(cc1OC(C)C)[C@H](c1ccc(Cl)cc1)N(c1ccc(C(C)(O)[C@H]3CCCN(C)C3)cc1)C(=O)C2 (stereo partly drawn)

>  <reported.result>
5.13 nM

$$$$
>  <molecule>
COc1cc2c(cc1OC(C)C)[C@H](c1ccc(Cl)cc1)N(c1ccc(C(C)(O)C3CC4CCC(C3)N4C)cc1)C(=O)C2 (stereo partly drawn)

>  <reported.result>
2.25 nM

$$$$
>  <molecule>
COc1cc2c(cc1OC(C)C)[C@H](c1ccc(Cl)cc1)N(c1ccc([C@](C)(O)C3CCN(CCO)CC3)cc1)C(=O)C2 (single isomer, unassigned)

>  <reported.result>
25.3 nM

$$$$

Data request: Given the molecule COc1cc2c(cc1OC(C)C)[C@H](c1ccc(Cl)cc1)N(c1ccc([C@](C)(O)C3CCN(C=O)CC3)cc1)C(=O)C2 (single isomer, unassigned) , what is its reported IC50?
Data returned: 150 nM
